Target: T1, GFP-9S library array, motif 4 ND N98C;D124V (synthetic construct, N98C;D124V)
T1 chain: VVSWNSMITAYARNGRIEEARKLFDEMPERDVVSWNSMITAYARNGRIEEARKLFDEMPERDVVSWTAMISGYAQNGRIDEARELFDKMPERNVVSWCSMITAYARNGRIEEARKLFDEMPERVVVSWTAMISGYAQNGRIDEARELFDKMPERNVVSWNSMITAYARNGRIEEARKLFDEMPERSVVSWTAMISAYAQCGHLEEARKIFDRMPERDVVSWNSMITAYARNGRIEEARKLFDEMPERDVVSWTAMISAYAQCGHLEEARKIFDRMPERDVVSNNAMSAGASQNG
Test: high-throughput RNA pulldown from lysate on Ni-NTA beads; HRP: 50 mM Tris pH 8, 150 mM NaCl, 1 mM beta-mercaptoethanol, 50 ug/ml BSA, 3 ug/ml yeast RNA, 0.5% heparin; ITC and FP: Tris pH 8, 200 mM KCl, 5% glycerol; MST: 50 mM Tris pH 8, 200 mM NaCl, 1 mM DTT, BSA, heparin, 0.05% Tween 20
Conditions: tags: N-terminal His-eGFP; label: 5' IRDye 800CW
assay-metric: Kd (nM)

>>> recorded_result("AUUAUACGUGA (ssRNA) [IR-rpoA-U]")
167
>>> recorded_result("AUUAAACGUGA (ssRNA) [IR-rpoA-A]")
98.1

Where do the numbers come from? From paper PMC8809517.
